systemUnderTest: renin in human plasma (human recombinant renin) (Homo sapiens, UniProt P00797)
Sequence (P00797 67-406): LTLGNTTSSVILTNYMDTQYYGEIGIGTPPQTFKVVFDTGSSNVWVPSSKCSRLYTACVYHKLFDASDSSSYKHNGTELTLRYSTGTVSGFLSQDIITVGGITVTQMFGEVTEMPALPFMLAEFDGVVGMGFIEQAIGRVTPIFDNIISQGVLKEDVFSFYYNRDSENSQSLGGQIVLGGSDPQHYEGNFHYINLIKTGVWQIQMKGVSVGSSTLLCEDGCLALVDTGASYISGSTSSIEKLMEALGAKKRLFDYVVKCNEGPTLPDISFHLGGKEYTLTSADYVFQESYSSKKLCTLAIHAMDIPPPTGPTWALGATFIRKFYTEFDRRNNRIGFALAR
testMethodNotes: Inhibition of renin in human plasma, enzymatic in vitro assay with Ang I EIA
details: human plasma from 10 normal donors; human recombinant renin 3 pM
measuredProperty: IC50 (nM)

P. COCCCc1cc(CN(C(=O)[C@H]2CNCC[C@@H]2c2ccc(OCCOc3c(Cl)cc(C)cc3Cl)cc2)C2CC2)cc(OC[C@@H]2C[C@H]2C(=O)O)c1
Q. COCCCc1cc(CN(C(=O)[C@H]2CNCC[C@@H]2c2ccc(OCCOc3c(Cl)cc(C)cc3Cl)cc2)C2CC2)cc(OCC2(CC(=O)O)CC2)c1
R. CCOC(=O)[C@@H]1C[C@H]1COc1cc(CCCOC)cc(CN(C(=O)[C@H]2CNCC[C@@H]2c2ccc(OCCOc3c(Cl)cc(C)cc3Cl)cc2)C2CC2)c1
S. COCCCc1cc(CN(C(=O)[C@H]2CNCC[C@@H]2c2ccc(OCCOc3c(Cl)cc(C)cc3Cl)cc2)C2CC2)cc(OCC2(Cc3nn[nH]n3)CC2)c1
Query: Order the entries by their reported IC50, beginning at the minimum. Answer by naming the labels in the order asked.
Response: P, S, Q, R
(P: 1.1 nM, S: 2.3 nM, Q: 5.6 nM, R: 11 nM)

Reference for the values: patent US8343968B2
